System: HCT-116
Assay: Cytotoxicity against human HCT-116 cells assessed as reduction in cell growth measured after 24 hrs by MTT assay
Assay type: functional, cell-based
Conditions: HCT-116, 24 h
observable: IC50 (µM)
Use µM as the unit, but write only the number.

Could you tell me which IC50 is on file for O=C(Oc1ccc(-c2ccc(OC(=O)c3cc(O)c(O)c(O)c3)cc2)cc1)c1cc(O)c(O)c(O)c1 ?
10

###

System: PANC-1
Assay: Cytotoxicity against human PANC-1 cells assessed as reduction in cell viability measured after 24 hrs by MTT assay
Assay type: functional, cell-based
Conditions: PANC-1, 24 h
observable: pIC50
The value called pIC50 is obtained by taking minus log10 of the concentration in mol/L.

# input molecule: O=C(Oc1ccc(-c2ccc(OC(=O)c3cc(O)c(O)c(O)c3)cc2)cc1)c1cc(O)c(O)c(O)c1 ; wanted: its pIC50
5.00
